- ASSAY_TARGET: mNPR1-mFc:hANP complex (mouse; human) (UniProt P01160)
- METHOD_SUMMARY: SPR Biacore, mAb captured by anti-human Fc, 25C
ENDPOINT_LABEL: 100 nM Ag Bound (RU)
Reply numerically in RU, unit not repeated.

Example entries and their recorded answers appear below.
mAb25497 (antibody, human IgG4, V domains shown) VH: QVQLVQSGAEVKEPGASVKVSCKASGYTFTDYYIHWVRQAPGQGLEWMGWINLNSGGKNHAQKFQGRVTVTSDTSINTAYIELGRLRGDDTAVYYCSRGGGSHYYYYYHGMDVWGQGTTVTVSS VL: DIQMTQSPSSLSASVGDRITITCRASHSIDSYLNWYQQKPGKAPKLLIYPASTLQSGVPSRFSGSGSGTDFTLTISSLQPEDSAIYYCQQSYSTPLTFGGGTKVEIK	1
mAb22035 (antibody, human IgG4, V domains shown) VH: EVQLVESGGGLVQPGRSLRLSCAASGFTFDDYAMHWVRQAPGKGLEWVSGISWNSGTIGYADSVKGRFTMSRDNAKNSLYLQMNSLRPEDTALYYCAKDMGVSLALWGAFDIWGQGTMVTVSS VL: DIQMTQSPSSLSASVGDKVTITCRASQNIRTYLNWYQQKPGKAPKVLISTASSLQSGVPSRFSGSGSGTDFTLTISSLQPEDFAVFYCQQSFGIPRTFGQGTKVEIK	0
mAb22805 (antibody, human IgG4, V domains shown) VH: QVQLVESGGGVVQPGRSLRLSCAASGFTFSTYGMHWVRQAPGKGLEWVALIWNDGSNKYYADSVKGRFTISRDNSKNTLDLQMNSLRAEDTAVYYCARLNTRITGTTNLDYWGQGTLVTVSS VL: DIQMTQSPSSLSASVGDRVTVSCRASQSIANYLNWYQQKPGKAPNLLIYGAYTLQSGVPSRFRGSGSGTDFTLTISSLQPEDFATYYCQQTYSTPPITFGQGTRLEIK	18
mAb25491 (antibody, human IgG4, V domains shown) VH: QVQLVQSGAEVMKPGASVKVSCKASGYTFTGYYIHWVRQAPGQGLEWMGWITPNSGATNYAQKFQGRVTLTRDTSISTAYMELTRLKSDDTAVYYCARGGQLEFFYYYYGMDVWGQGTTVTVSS VL: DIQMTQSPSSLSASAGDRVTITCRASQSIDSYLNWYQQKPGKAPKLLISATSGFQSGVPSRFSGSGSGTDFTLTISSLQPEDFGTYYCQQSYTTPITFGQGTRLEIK	1

Q: Tell us which 100 nM Ag Bound (RU) value is on record for mAb25502 (antibody, human IgG4, V domains shown) VH: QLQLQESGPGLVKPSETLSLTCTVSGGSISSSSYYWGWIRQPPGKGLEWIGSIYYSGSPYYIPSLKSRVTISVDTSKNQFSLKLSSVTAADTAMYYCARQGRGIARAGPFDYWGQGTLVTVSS VL: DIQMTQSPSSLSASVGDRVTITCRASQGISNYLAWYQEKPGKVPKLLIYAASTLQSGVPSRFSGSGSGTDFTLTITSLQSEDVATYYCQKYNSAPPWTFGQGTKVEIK
Ans: 25
